Each entry below lists one item and its recorded slope value.
Molecular target: Alpha-2C adrenergic receptor (Homo sapiens) (UniProt P18825)
Sequence (P18825 whole entry, looked up): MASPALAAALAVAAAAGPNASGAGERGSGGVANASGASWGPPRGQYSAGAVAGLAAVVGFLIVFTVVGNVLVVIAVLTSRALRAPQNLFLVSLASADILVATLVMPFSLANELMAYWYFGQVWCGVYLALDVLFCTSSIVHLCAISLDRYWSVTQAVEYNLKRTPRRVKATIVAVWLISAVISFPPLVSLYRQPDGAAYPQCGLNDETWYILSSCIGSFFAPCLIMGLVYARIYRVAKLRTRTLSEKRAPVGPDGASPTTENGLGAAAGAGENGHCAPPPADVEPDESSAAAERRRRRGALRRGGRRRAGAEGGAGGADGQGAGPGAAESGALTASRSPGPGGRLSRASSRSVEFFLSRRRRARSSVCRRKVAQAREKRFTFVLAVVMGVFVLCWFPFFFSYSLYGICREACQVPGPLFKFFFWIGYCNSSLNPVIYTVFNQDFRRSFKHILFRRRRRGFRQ
Assay: modulators of alpha2C/GIRK thallium flux, primary screen, cell-based, HEK293 alpha2C/GIRK1/2 (AID 624);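 also: slope of fluorescence ratio to pre-addition baseline per second over 15 to 24 s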
Settings: thallium flux BTC fluorescence, at 10 µM, actives lie on both sides
valueKind: slope

molecule | valueKind | measurement
Clc1ccc(SCc2cn3ccsc3n2)cc1 | slope | 0.0044
CCc1cc2c(=O)c(-c3cscn3)coc2c(CN(C)C)c1O | slope | 0.00409
CC(C)(S)[C@@H](N)C(=O)O | slope | 0.00423
CCOC(=O)c1ccc(NC(=O)CCC(CC)C(=O)O)cc1 (stereo unspecified) | slope | 0.00545
Cn1c2c(c(=O)n(C)c1=O)C(NC(=O)C(C)(C)C)(C(F)(F)F)C(=O)N2 (stereo unspecified) | slope | 0.00635
COC(=O)c1cc(OC)c(OC)cc1N | slope | 0.00592

Measured values drawn from PubChem BioAssay for this set.
